test system: L929 cells; experiment: Cytotoxicity of flavonoid dimers, L929 mouse fibroblast; format: cell-based; settings: IC50 of compound alone, 72 hrs, mouse fibroblast; read-out: Cytotoxicity (μM) L929
readout-kind: IC50 (µM)
Number in µM, nothing else.

Q: Find the measured IC50: item CC(C)(C)OC(=O)N(CCOCCOc1ccc(-c2cc(=O)c3ccccc3o2)cc1)CCOCCOc1ccc(-c2cc(=O)c3ccccc3o2)cc1 [Compound 16a] , target or system L929 cells.
Result: 11.1

---

target: Pgp (LCC6MDR cells) (Homo sapiens); assay: Cell proliferation assay: Pgp-modulating activity, reversal of anticancer drug resistance in LCC6MDR cells; details: RF = (IC50 without modulator)/(IC50 with 0.5 μM modulator), paclitaxel, LCC6MDR
readout-kind: RF (Relative Fold), cpd at 0.5 μM

{"columns": ["molecule", "readout-kind", "meas-value"],
 "data": [
  ["O=c1cc(-c2ccc(OCCOCCN(CCOCCOc3ccc(-c4cc(=O)c5ccccc5o4)cc3)Cc3ccc(OC(F)(F)F)cc3)cc2)oc2ccccc12 [Compound 42b]", "RF (Relative Fold), cpd at 0.5 μM", "(3.8)"]
]}

---

molecular target: Pgp (LCC6MDR cells) (Homo sapiens, UniProt P08183); assay: Cell proliferation assay: Pgp-modulating activity, reversal of anticancer drug resistance in LCC6MDR cells; conditions: EC50 of compounds for reversing anticancer drug resistance (nM), Paclitaxel, LCC6MDR
Sequence (P08183 whole entry): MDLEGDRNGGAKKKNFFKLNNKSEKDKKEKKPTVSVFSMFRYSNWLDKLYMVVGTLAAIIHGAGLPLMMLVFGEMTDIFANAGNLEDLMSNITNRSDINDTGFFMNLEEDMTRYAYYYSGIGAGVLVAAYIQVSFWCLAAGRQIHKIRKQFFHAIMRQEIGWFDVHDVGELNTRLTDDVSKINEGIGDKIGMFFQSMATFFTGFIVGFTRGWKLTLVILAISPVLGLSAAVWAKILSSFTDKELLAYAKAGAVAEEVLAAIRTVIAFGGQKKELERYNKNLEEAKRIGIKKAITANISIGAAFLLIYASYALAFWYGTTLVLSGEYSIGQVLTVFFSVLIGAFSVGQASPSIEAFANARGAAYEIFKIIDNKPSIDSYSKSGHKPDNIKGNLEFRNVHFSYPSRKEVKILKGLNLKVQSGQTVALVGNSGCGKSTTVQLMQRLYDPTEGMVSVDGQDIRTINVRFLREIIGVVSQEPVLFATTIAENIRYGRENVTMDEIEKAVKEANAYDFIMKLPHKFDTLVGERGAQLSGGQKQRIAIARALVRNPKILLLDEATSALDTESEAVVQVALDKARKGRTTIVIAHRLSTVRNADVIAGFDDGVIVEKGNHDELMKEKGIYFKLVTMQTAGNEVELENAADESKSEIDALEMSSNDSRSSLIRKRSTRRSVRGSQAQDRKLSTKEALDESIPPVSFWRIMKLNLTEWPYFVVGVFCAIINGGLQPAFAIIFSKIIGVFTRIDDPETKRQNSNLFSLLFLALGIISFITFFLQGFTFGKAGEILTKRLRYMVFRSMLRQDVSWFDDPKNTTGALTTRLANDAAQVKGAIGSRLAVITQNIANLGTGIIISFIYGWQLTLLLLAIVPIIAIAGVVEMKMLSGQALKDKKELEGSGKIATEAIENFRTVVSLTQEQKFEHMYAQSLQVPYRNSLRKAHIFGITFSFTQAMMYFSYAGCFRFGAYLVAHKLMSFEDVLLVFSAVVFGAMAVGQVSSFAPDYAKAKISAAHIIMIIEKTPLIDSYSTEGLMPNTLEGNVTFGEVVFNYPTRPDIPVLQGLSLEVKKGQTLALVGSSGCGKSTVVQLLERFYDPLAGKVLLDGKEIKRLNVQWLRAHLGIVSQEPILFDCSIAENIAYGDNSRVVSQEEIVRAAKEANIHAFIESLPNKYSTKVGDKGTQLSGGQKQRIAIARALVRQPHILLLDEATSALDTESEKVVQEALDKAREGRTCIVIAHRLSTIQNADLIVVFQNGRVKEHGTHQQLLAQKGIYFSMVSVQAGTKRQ
readout-kind: EC50 (nM)
Number in nM, nothing else.

Example results:
{"columns": ["compound", "EC50, nM"],
 "data": [
  ["O=c1cc(-c2ccc(OCCOCCN(CCOCCOc3ccc(-c4cc(=O)c5ccccc5o4)cc3)Cc3ccc(C(F)(F)F)cc3)cc2)oc2ccccc12 [Compound 35]", 150],
  ["O=c1cc(-c2ccc(OCCOCCN(CCOCCOc3ccc(-c4cc(=O)c5ccccc5o4)cc3)Cc3ccccc3)cc2)oc2ccccc12 [Compound 18]", 148]
]}

Then this compound:
Q: So what's the measured EC50 for this one? COc1ccc(CN(CCOCCOc2ccc(-c3cc(=O)c4ccccc4o3)cc2)CCOCCOc2ccc(-c3cc(=O)c4ccccc4o3)cc2)cc1 [Compound 42a]
Result: 104

---

assay: Tumor cell line cytotoxicity of flavonoid dimers, LCC6MDR; assay type: cell-based, human; conditions: human, LCC6MDR cells, IC50 of compound alone
readout-kind: IC50 at 72 h

{"columns": ["molecule", "IC50 at 72 h"],
 "data": [
  ["O=c1cc(-c2ccc(OCCOCCN(CCOCCOc3ccc(-c4cc(=O)c5ccccc5o4)cc3)Cc3ccc(Cl)cc3)cc2)oc2ccccc12 [Compound 49]", "> 100 µM"],
  ["COc1cccc2oc(-c3ccc(OCCOCCNCCOCCOc4ccc(-c5cc(=O)c6c(OC)cccc6o5)cc4)cc3)cc(=O)c12 [Compound 12d]", "10.2 µM"],
  ["O=c1cc(-c2ccc(OCCOCCN(CCOCCOc3ccc(-c4cc(=O)c5ccccc5o4)cc3)Cc3cc4c(cc3Cl)OCO4)cc2)oc2ccccc12 [Compound 42f]", "> 100 µM"]
]}

Q: So what's the measured IC50 at 72 h for this one? N#Cc1cc(CN(CCOCCOc2ccc(-c3cc(=O)c4ccccc4o3)cc2)CCOCCOc2ccc(-c3cc(=O)c4ccccc4o3)cc2)ccn1 [Compound 64c]
Result: > 100 µM

Q: So what's the measured IC50 at 72 h for this one? CC(=O)Oc1ccc(CN(CCOCCOc2ccc(-c3cc(=O)c4ccccc4o3)cc2)CCOCCOc2ccc(-c3cc(=O)c4ccccc4o3)cc2)cc1 [Compound 42c]
Result: 5.9 µM

Q: So what's the measured IC50 at 72 h for this one? O=c1cc(-c2ccc(OCCOCCN(CCOCCOc3ccc(-c4cc(=O)c5ccccc5o4)cc3)Cc3nc4ccccc4[nH]3)cc2)oc2ccccc12 [Compound 60]
Result: > 100 µM

---

system: L929 cells; experiment: Cytotoxicity of flavonoid dimers, L929 mouse fibroblast; format: cell-based
readout-kind: pIC50
// pIC50: -log10(molar conc.)

{"columns": ["compound-structure-string", "pIC50"],
 "data": [
  ["O=c1cc(-c2ccc(OCCOCCN(CCO)CCOCCOc3ccc(-c4cc(=O)c5ccccc5o4)cc3)cc2)oc2ccccc12", 5.16],
  ["CCN(CCOCCOc1ccc(-c2cc(=O)c3ccccc3o2)cc1)CCOCCOc1ccc(-c2cc(=O)c3ccccc3o2)cc1", 5.16]
]}

Q: So what's the measured pIC50 for this one? `CCOC(=O)CCN(CCOCCOc1ccc(-c2cc(=O)c3ccccc3o2)cc1)CCOCCOc1ccc(-c2cc(=O)c3ccccc3o2)cc1`
Result: 4.74

---

tested on: LCC6MDR cells; assay: Tumor cell line cytotoxicity of flavonoid dimers, LCC6MDR; format: cell-based, human; settings: IC50 of compound alone, 72 hrs
readout-kind: IC50

Example results:
{"columns": ["compound", "meas-value"],
 "data": [
  ["CC(C)(C)OC(=O)N(CCOCCOc1ccc(-c2cc(=O)c3c(OCc4ccccc4)cccc3o2)cc1)CCOCCOc1ccc(-c2cc(=O)c3c(OCc4ccccc4)cccc3o2)cc1 [Compound 16e]", "> 100 µM"],
  ["CCOC(=O)CCN(CCOCCOc1ccc(-c2cc(=O)c3ccccc3o2)cc1)CCOCCOc1ccc(-c2cc(=O)c3ccccc3o2)cc1 [Compound 15]", "17.7 µM"],
  ["O=c1cc(-c2ccc(OCCOCCN(CCO)CCOCCOc3ccc(-c4cc(=O)c5ccccc5o4)cc3)cc2)oc2ccccc12 [Compound 14]", "14.8 µM"],
  ["CCN(CCOCCOc1ccc(-c2cc(=O)c3ccccc3o2)cc1)CCOCCOc1ccc(-c2cc(=O)c3ccccc3o2)cc1 [Compound 13]", "17.3 µM"],
  ["Cc1ccc(S(=O)(=O)N(CCOCCOc2ccc(-c3cc(=O)c4ccccc4o3)cc2)CCOCCOc2ccc(-c3cc(=O)c4ccccc4o3)cc2)cc1 [Compound 25a]", "> 100 µM"],
  ["O=C(O)CCC(=O)N(CCOCCOc1ccc(-c2cc(=O)c3ccccc3o2)cc1)CCOCCOc1ccc(-c2cc(=O)c3ccccc3o2)cc1 [Compound 23a]", "> 100 µM"]
]}

Q: So what's the measured IC50 for this one? Cc1ccc2oc(-c3ccc(OCCOCCN(CCOCCOc4ccc(-c5cc(=O)c6cc(C)ccc6o5)cc4)C(=O)OC(C)(C)C)cc3)cc(=O)c2c1 [Compound 17c]
Result: > 100 µM

---

target: Pgp (LCC6MDR cells) (Homo sapiens, UniProt P08183); test: Cell proliferation assay: Pgp-modulating activity, reversal of anticancer drug resistance in LCC6MDR cells; conditions: RF = (IC50 without modulator)/(IC50 with 0.5 μM modulator), paclitaxel, LCC6MDR

{"columns": ["compound-structure-string", "RF (Relative Fold), cpd at 0.5 μM"],
 "data": [
  ["Nc1ccc(CN(CCOCCOc2ccc(-c3cc(=O)c4ccccc4o3)cc2)CCOCCOc2ccc(-c3cc(=O)c4ccccc4o3)cc2)cc1", "(8.8)"],
  ["COC(=O)c1ccc(CN(CCOCCOc2ccc(-c3cc(=O)c4ccccc4o3)cc2)CCOCCOc2ccc(-c3cc(=O)c4ccccc4o3)cc2)cc1", "(2.1)"]
]}

---

experiment: Cytotoxicity of flavonoid dimers, L929 mouse fibroblast; type: cell-based; conditions: mouse, L929 fibroblast cells, IC50 of compound alone, 72 hrs, mouse fibroblast
readout-kind: IC50 at 72 h (µM)
Number in µM, nothing else.

Example results:
{"columns": ["compound", "measurement-units", "IC50 at 72 h"],
 "data": [
  ["O=c1cc(-c2ccc(OCCOCCN(CCOCCOc3ccc(-c4cc(=O)c5ccccc5o4)cc3)Cc3cccnc3)cc2)oc2ccccc12 [Compound 64a]", "µM", 2.3],
  ["O=C(c1ccccc1)N(CCOCCOc1ccc(-c2cc(=O)c3ccccc3o2)cc1)CCOCCOc1ccc(-c2cc(=O)c3ccccc3o2)cc1 [Compound 23d]", "µM", 95],
  ["O=c1cc(-c2ccc(OCCOCCN(CCCc3ccccc3)CCOCCOc3ccc(-c4cc(=O)c5ccccc5o4)cc3)cc2)oc2ccccc12", "µM", 9.5]
]}

Then this compound:
Q: So what's the measured IC50 at 72 h for this one? `O=c1cc(-c2ccc(OCCOCCN(CCOCCOc3ccc(-c4cc(=O)c5ccccc5o4)cc3)Cc3ccccn3)cc2)oc2ccccc12`
Result: 10

---

tested on: LdAG83PentR50 promastigotes (pentamidine-resistant); assay: microbe, parasite or virus in culture; assay type: cell-based, Leishmania donovani; conditions: Leishmania donovani, 72 h, read-out: Anti-promastigotes activity (IC50, μM) LdAG83PentR50
Recorded measurements of IC50, one per entry
Number in µM, nothing else.

Example results:
{"columns": ["compound", "IC50 [µM]"],
 "data": [
  ["CC(C)(C)OC(=O)N(CCOCCOc1ccc(-c2cc(=O)c3ccccc3o2)cc1)CCOCCOc1ccc(-c2cc(=O)c3ccccc3o2)cc1 [Compound 16a]", 1.1],
  ["O=c1cc(-c2ccc(OCCOCCNCCOCCOc3ccc(-c4cc(=O)c5ccccc5o4)cc3)cc2)oc2ccccc12 [Compound 12a]", 1.1],
  ["CCCCCCCCCCCCCCCCOP(=O)([O-])OCC[N+](C)(C)C [Miltefosine, reference compound]", 9.3]
]}

Q: So what's the measured IC50 for this one? NC[C@@H]1O[C@H](O[C@H]2[C@@H](O)[C@H](O[C@@H]3[C@@H](O)[C@H](N)C[C@H](N)[C@H]3O[C@H]3O[C@H](CO)[C@@H](O)[C@H](O)[C@H]3N)O[C@@H]2CO)[C@H](N)[C@@H](O)[C@@H]1O [Paromomycin, paromomycin, reference compound]
Result: 85.5

Q: So what's the measured IC50 for this one? `O=c1cc(-c2ccc(OCCOCCN(CCOCCOc3ccc(-c4cc(=O)c5ccccc5o4)cc3)Cc3ccncc3)cc2)oc2ccccc12`
Result: 0.13

Q: So what's the measured IC50 for this one? N=C(N)c1ccc(OCCCCCOc2ccc(C(=N)N)cc2)cc1 [Pentamidine, reference compound]
Result: 74.7

All values here come from patent US8980848B2.
